// provenance: ChEMBL document CHEMBL1127585

# System Under Test: Sigma non-opioid intracellular receptor 1 (Rattus norvegicus)
# Assay: Tested for its binding affinity towards sigma-1 site in rat brain, using [3H]-(+)-SKF- 10047 as radioligand
# Assay type: tissue-based
Measured Quantity: pKi
Friendly reminder that pKi comes from taking -log10 of the concentration in mol/L.

Q: // lookup pKi for O=C(OCCN1CCOCC1)C1(c2ccccc2)CCCCC1
A: 7.36

###

# System Under Test: Muscarinic acetylcholine receptor M1 (Homo sapiens)
We label by threshold. Values of Ki strictly beneath 900 nM are Fulfilled. Values of 900 nM and up are Not fulfilled.

Reference set (4 entries):
1) CCN(CC)CCOCCOC(=O)C(C)c1ccccc1 (centres undefined) : Not fulfilled
2) O=C(OCOCCN1CCOCC1)C1(c2ccc(Cl)c(Cl)c2)CCCCC1 : Not fulfilled
3) CCN(CC)CCOCCNCC1(c2ccccc2)CCCC1 : Not fulfilled
4) CCN(CC)CCOCCN(C)CC1(c2ccccc2)CCCC1 : Fulfilled

Then there is this compound:
Q: Below 900 nM on Ki? Entry O=C(OCOCCN1CCCC1)C1(c2ccc(Cl)c(Cl)c2)CCCCC1
A: Fulfilled

###

# System Under Test: Sigma non-opioid intracellular receptor 1 (Rattus norvegicus)
# Assay: Ratio between the Ki values of sigma-2 and sigma-1 receptors
Respond with Yes for Ratio values of 30 and above, No for values below.

Reference set (3 entries):
1. CCN(CC)CCOCCN(C)CC1(c2ccccc2)CCCC1 : Yes
2. O=C(OCOCCN1CCOCC1)C1(c2ccc(Cl)c(Cl)c2)CCCCC1 : No
3. CCN(CC)CCOCCOCC1(c2ccccc2)CCCC1 : No

Then there is this compound:
Q: Kindly determine if Ratio recorded for CCN(CC)CCOCCOC(=O)C1(c2ccccc2)CC1 is above or exactly 30.
A: Yes

###

# System Under Test: Sigma non-opioid intracellular receptor 1 (Rattus norvegicus, UniProt Q9R0C9)
# Sequence (Q9R0C9 whole entry): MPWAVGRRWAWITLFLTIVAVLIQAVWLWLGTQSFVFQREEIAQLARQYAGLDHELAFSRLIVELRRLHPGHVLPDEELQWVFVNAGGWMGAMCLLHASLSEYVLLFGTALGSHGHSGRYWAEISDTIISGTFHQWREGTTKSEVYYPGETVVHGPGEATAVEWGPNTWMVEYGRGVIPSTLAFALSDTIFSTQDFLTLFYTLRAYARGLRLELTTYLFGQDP
# Assay: Tested for its binding affinity towards sigma-1 site in rat brain using E3H1-(+)-SKF 10047 as radioligand in rat brain
# Format: tissue-based
The following compounds are shown together with reported pKi values.
Friendly reminder that pKi comes from taking -log10 of the concentration in mol/L.

The following compounds have reported results that may help.
1) CCN(CC)CCOCCOC(=O)C1(c2ccccc2)CC1 : 7.35
2) CCN(CC)CCOCCN(C)CC1(c2ccccc2)CCCC1 : 7.47

Q: // lookup pKi for CCN(CC)CCOCCOC(=O)C1(c2ccc(Cl)cc2)CCCC1
A: 7.62

Q: // lookup pKi for O=C(OCOCCN1CCCC1)C1(c2ccc(Cl)c(Cl)c2)CCCCC1
A: 7.49

###

# System: Glutamate NMDA receptor
# Assay: Binding affinity towards PCP (1-(1-phenylcyclohexyl)piperidine) receptor.
# Type: protein-complex assay
Measured Quantity: Ki

The following compounds have reported results that may help.
1) O=C(OCOCCN1CCCC1)C1(c2ccc(Cl)c(Cl)c2)CCCCC1 : Not Active
2) CCN(CC)CCOCCOC(=O)C1(c2ccccc2)CC1 : Not Active
3) CCN(CC)CCOCNC(=O)C1(c2ccc(Cl)c(Cl)c2)CCCCC1 : Not Active
4) C=CCN1CCC2c3cc(O)ccc3CC1C2C (stereo unspecified) : Not Active
5) O=C(NCOCCN1CCOCC1)C1(c2ccc(Cl)c(Cl)c2)CCCCC1 : Not Active

Q: Form field - read-out: Ki; system: Glutamate NMDA receptor; submitted item: Cc1ccccc1NC(=N)Nc1ccccc1C
A: Not Active

Q: Form field - read-out: Ki; system: Glutamate NMDA receptor; submitted item: CCN(CC)CCOCCN(C)CC1(c2ccccc2)CCCC1
A: Not Active

Q: Form field - read-out: Ki; system: Glutamate NMDA receptor; submitted item: CCN(CC)CCOCOC(=O)C1(c2ccc(Cl)c(Cl)c2)CCCCC1
A: Not Active

Q: Form field - read-out: Ki; system: Glutamate NMDA receptor; submitted item: O=C(OCOCCN1CCOCC1)C1(c2ccc(Cl)c(Cl)c2)CCCCC1
A: Not Active

Q: Form field - read-out: Ki; system: Glutamate NMDA receptor; submitted item: CCN(CC)CCOCCNCC1(c2ccccc2)CCCC1
A: Not Active

Q: Form field - read-out: Ki; system: Glutamate NMDA receptor; submitted item: CCN(CC)CCOCCOC(=O)C1(c2ccc(Cl)cc2)CCCC1
A: Not Active

###

Sequence of the target: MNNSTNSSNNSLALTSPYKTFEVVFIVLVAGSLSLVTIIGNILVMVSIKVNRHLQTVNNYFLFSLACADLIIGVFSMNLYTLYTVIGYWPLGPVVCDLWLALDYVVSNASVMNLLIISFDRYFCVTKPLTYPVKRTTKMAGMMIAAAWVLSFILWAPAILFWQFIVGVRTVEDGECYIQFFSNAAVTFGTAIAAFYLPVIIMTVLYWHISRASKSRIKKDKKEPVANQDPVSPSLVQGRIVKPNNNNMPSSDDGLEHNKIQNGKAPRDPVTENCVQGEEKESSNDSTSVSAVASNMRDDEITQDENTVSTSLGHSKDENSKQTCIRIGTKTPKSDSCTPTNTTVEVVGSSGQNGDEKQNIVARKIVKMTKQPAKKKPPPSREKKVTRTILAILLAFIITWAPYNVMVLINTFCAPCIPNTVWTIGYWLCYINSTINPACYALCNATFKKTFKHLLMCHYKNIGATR
Measured Quantity: Ki (nM)
// note: answer is a bare numeric in nM

The following molecules have reported results that may help.
1) CCN(CC)CCOCCN(C)CC1(c2ccccc2)CCCC1 : 1570
2) CCN(CC)CCOCCOC(=O)C1(c2ccc(OC)cc2)CCCC1 : 692
3) CCN(CC)CCOCCNCC1(c2ccccc2)CCCC1 : 2270

Turning now to a further molecule:
Q: // lookup Ki for O=C(OCOCCN1CCCC1)C1(c2ccc(Cl)c(Cl)c2)CCCCC1
A: 74

###

# System Under Test: Sigma non-opioid intracellular receptor 1 (Rattus norvegicus)
# Assay: Tested for its binding affinity towards sigma-1 site using E3H1-(+)-SKF 10047 as radioligand in rat brain
# Assay type: tissue-based
Measured Quantity: pKi
Friendly reminder that pKi comes from taking -log10 of the concentration in mol/L.

Q: Form field - read-out: pKi; system: Sigma non-opioid intracellular receptor 1 (Rattus norvegicus); submitted item: C=CCN1CCC2c3cc(O)ccc3CC1C2C (stereo unspecified)
A: 7.17

###

# System Under Test: Sigma 2 receptor
# Assay: Tested for its binding affinity towards sigma-2 site using [3H]-DTG as radioligand
Measured Quantity: Ki
Number first, unit second: that is the form wanted.

Q: // lookup Ki for C=CCN1CCC2c3cc(O)ccc3CC1C2C (stereo unspecified)
A: 44 nM

###

Protein target, amino acids: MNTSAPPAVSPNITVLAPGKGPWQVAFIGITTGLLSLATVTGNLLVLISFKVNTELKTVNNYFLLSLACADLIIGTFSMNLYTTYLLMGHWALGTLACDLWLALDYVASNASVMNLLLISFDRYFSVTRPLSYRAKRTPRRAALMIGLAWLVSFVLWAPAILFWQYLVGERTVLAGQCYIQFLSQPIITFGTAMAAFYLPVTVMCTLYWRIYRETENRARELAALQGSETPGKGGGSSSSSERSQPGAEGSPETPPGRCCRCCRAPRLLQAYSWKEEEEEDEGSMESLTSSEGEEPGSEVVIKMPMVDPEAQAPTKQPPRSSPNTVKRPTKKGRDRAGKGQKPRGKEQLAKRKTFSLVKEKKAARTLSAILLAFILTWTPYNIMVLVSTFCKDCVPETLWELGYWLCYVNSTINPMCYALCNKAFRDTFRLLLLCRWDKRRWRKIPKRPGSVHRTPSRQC
The following compounds are shown together with reported pKi values.
Friendly reminder that pKi comes from taking -log10 of the concentration in mol/L.

The following compounds have reported results that may help.
1) CCN(CC)CCOCCOCC1(c2ccccc2)CCCC1 : 6.04
2) CCN(CC)CCOCOC(=O)C1(c2ccc(Cl)c(Cl)c2)CCCCC1 : 7.70

Q: // lookup pKi for CCN(CC)CCOCCOC(=O)C1(c2ccc(OC)cc2)CCCC1
A: 5.98

###

# System Under Test: Sigma non-opioid intracellular receptor 1 (Rattus norvegicus) (UniProt Q9R0C9)
# Sequence (Q9R0C9 whole entry): as the sequence (Q9R0C9 whole entry) above
# Assay: Ratio between the Ki values of sigma-2 and sigma-1 receptors
Measured Quantity: Ratio
// return just the number, without any unit appended

The following compounds have reported results that may help.
1) CCN(CC)CCOCCOC(=O)C1(c2ccccc2)CCCCC1 : 23
2) CCN(CC)CCOCOC(=O)C1(c2ccc(Cl)c(Cl)c2)CCCCC1 : 30
3) CCN(CC)CCOCCOC(=O)C1(c2ccc(OC)cc2)CCCC1 : 25
4) CCN(CC)CCOCNC(=O)C1(c2ccc(Cl)c(Cl)c2)CCCCC1 : 20
5) CCN(CC)CCOCCOC(=O)C(C)c1ccccc1 (stereo not given) : 78
6) CCN(CC)CCOCCNC(=O)C1(c2ccccc2)CCCC1 : 13
7) O=C(OCOCCN1CCCC1)C1(c2ccc(Cl)c(Cl)c2)CCCCC1 : 22
8) CCN(CC)CCOCCOC(=O)C1(c2ccc(Cl)cc2)CCCC1 : 27
9) CCN(CC)CCOCCNCC1(c2ccccc2)CCCC1 : 1.2

Q: // lookup Ratio for O=C(NCOCCN1CCOCC1)C1(c2ccc(Cl)c(Cl)c2)CCCCC1
A: 51
